# measurement_target: T1, Fc-tagged human TSLP antigen (huTSLP-Fc) (human, biotin-labeled in the blocking assays)
# T1 construct: whole entry named; also called recombinant human TSLP-Fc
# assay_remarks: competition ELISA: blocks TSLP binding to TSLP receptor
Kindly state pIC50 for each of the entries shown.
Scale for pIC50: -log10 of concentration given in mol/L; no unit attached.

pIC50 reported for this binder hu199-33 (antibody, human IgG1, kappa, V domains shown, IgG1-YTE, kappa) VH: EVQLVQSGAEVKKPGASVKVSCKASGYTFTTYWMHWVKQAPGQGLEWMGMIDPSDSETTLIQKFKDKVTLTVDKSTSTAYMELSSLRSEDTAVYYCARTLDGYYDYWGQGTTVTVSS VL: DIQMTQSPSSLSASVGDRVTITCRASENIYSYLAWYQQKPGKSPQLLVYFAKTLAEGVPSRFSGSGSGTQFTLTISSLQPEDFATYYCQHHYGTPWTFGGGTKVEIKR : 9.69

pIC50 for hu199-17 (antibody, human IgG1, kappa, V domains shown, IgG1-YTE, kappa) VH: EVQLVQSGAEVKKPGASVKVSCKASGYTFTTYWMHWVRQAPGQGLEWIGMIDPSDSETTLIQKFKDRATLTVDKSTSTAYMELSSLRSEDTAVYYCARTLDGYYDYWGQGTTVTVSS VL: DIQMTQSPSSLSASVGDRVTITCRASENIYSYLAWYQQKPGKAPKLLVYFAKTLAEGVPSRFSGSVSGTDFTLTISSLQPEDFATYYCQHHYGTPWTFGGGTKVEIKR is 9.21

Lab note: measured pIC50 of hu199-12 (antibody, human IgG1, kappa, V domains shown, IgG1-YTE, kappa) VH: EVQLVQSGAEVKKPGASVKVSCKASGYTFTTYWMHWVRQAPGQGLEWMGMIDPSDSETTLIQKFKDRVTLTVDKSTSTAYMELSSLRSEDTAVYYCARTLDGYYDYWGQGTTVTVSS VL: DIQMTQSPSSLSASVGDRVTITCRASENIYSYLAWYQQKPGKSPQLLVYFAKTLAEGVPSRFSGSVSGTQFTLTISSLQPEDFATYYCQHHYGTPWTFGGGTKVEIKR was 9.43

Each recorded value in this set is attributed to patent US20240016931A1.
